Target Of Assay: recombinant human AMPK complex 7 (containing α2β1γ1) (Homo sapiens (Human), UniProt P54646+Q9Y478)
Sequence (P54646 whole entry): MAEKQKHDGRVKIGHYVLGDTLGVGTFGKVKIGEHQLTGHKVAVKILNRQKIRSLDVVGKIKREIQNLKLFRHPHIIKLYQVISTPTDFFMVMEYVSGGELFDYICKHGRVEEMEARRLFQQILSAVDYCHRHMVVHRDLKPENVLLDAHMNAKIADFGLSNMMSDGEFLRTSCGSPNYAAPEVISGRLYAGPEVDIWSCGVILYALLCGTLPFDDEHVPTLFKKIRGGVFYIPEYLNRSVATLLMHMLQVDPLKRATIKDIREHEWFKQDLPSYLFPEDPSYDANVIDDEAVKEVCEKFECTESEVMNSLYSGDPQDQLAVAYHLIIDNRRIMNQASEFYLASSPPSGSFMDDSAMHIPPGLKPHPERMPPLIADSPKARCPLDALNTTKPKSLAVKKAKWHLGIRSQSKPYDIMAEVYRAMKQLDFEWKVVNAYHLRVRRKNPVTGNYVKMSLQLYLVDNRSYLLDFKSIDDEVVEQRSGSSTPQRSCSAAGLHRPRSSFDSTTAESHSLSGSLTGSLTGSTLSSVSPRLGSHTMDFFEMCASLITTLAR
Sequence (Q9Y478 whole entry): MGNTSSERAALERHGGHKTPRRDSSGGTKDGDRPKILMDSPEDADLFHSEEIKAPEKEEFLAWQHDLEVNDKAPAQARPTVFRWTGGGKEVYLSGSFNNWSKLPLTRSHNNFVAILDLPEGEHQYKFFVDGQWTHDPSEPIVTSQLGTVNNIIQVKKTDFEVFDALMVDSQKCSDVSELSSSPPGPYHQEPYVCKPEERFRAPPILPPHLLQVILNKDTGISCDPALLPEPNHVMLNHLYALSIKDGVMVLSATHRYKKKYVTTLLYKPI
Sequence (P54619 whole entry partner): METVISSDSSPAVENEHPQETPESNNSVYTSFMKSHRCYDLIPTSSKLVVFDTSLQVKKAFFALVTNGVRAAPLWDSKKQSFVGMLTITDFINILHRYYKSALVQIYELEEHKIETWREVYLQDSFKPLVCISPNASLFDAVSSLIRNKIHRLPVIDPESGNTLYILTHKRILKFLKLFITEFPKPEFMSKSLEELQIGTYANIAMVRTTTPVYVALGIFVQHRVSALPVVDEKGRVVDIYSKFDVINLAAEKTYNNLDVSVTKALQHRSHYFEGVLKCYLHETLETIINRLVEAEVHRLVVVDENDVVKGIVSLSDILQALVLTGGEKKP
Test Details: in vitro AMPK activation assay (AMPKSAMSF), complex 7
Settings: inflection point reflecting 50% of the maximum activation; table head names AMPK complex 7
pEC50: −log10 of the molar value.
Measure Name: pEC50

Q: What measured pEC50 goes with O=C1CC(c2ccc(-c3ccc(-c4nc5nc(O[C@@H]6CO[C@H]7[C@@H]6OC[C@H]7O)[nH]c5cc4Cl)cc3)cc2)CN1 (stereo partly drawn) [Example 149] ?
A: 8.70

[1] O[C@@H]1CO[C@H]2[C@@H]1OC[C@H]2Oc1nc2nc(-c3ccc(-c4ccc(C5CNCCO5)cc4)cc3)c(Cl)cc2[nH]1 (stereo partly drawn) [Example 133]
[2] Cn1c(-c2ccc(-c3ccc(-c4nc5nc(O[C@@H]6CO[C@H]7[C@@H]6OC[C@H]7O)[nH]c5cc4Cl)cc3)cc2)cnc1N [Example 127]
Q: Choose between 1 and 2 : whose measured pEC50 value is numerically larger? Answer = label.
A: 1

---

Target Of Assay: recombinant human AMPK complex 7 (containing α2β1γ1) (Homo sapiens (Human), UniProt P54646+Q9Y478)
Test Details: in vitro AMPK activation assay (AMPKSAMSF), complex 7
Settings: inflection point reflecting 50% of the maximum activation; table head names AMPK complex 7
Description: AMPKSAMSF (in vitro AMPK activation assay) The recombinant human AMPK complex 1 (containing α1β1γ1) or AMPK complex 7 (containing α2β1γ1) was obtained from baculovirus expression system. […] The in vitro AMPK activation assay is performed in a volume of 30 μl in a 384-well plate. […] Phosphorylated 5-FAM SAMS product is assessed using a Caliper EZ Reader LabChip microfluidics reader. […] The 10-point titration data were expressed as % maximum AMP activation. […]
Measure Name: EC50 (nM)

// solved cases for EC50 follow
Q: What measured EC50 goes with Cc1nnc(-c2ccc(-c3ccc(-c4nc5nc(O[C@@H]6CO[C@H]7[C@@H]6OC[C@H]7O)[nH]c5cc4Cl)cc3)cc2)o1 ?
A: 3

Q: What measured EC50 goes with O[C@@H]1CO[C@H]2[C@@H]1OC[C@H]2Oc1nc2nc(-c3ccc(-c4ccc(-n5cc(C(O)(O)C(F)(F)F)nn5)cc4)cc3)c(Cl)cc2[nH]1 ?
A: 2

Q: What measured EC50 goes with OCc1ccc(-c2ccc(-c3nc4nc(O[C@@H]5CO[C@H]6[C@@H]5OC[C@H]6O)[nH]c4cc3Cl)cc2)cc1 ?
A: 4

Q: What measured EC50 goes with O[C@@H]1CO[C@H]2[C@@H]1OC[C@H]2Oc1nc2nc(-c3ccc(-c4ccc(Cn5ncnn5)cc4)cc3)c(Cl)cc2[nH]1 ?
A: 2

Q: What measured EC50 goes with CN(C)CCOc1ccc(-c2ccc(-c3nc4nc(O[C@@H]5CO[C@H]6[C@@H]5OC[C@H]6O)[nH]c4cc3Cl)cc2)cc1 ?
A: 2

Q: What measured EC50 goes with O=C(O)C1CCC(c2ccc(-c3ccc(-c4nc5nc(O[C@@H]6CO[C@H]7[C@@H]6OC[C@H]7O)[nH]c5cc4Cl)cc3)cc2)=N1 (stereo partly shown) ?
A: 6

Q: What measured EC50 goes with C=CCO[C@@H]1CO[C@H]2[C@@H]1OC[C@H]2Oc1nc2nc(-c3ccc(-c4ccccc4)cc3)c(Cl)cc2[nH]1 ?
A: 6

Q: What measured EC50 goes with O=c1ccn(-c2ccc(-c3ccc(-c4nc5nc(O[C@@H]6CO[C@H]7[C@@H]6OC[C@H]7O)[nH]c5cc4Cl)cc3)cc2)[nH]1 ?
A: 1

[I] O=c1[nH]c(-c2ccc(-c3ccc(-c4nc5nc(O[C@@H]6CO[C@H]7[C@@H]6OC[C@H]7O)[nH]c5cc4Cl)cc3)cc2)no1
[II] Oc1ccnc(-c2ccc(-c3ccc(-c4nc5nc(O[C@@H]6CO[C@H]7[C@@H]6OC[C@H]7O)[nH]c5cc4Cl)cc3)cc2)n1
Q: Choose between I and II : whose measured EC50 value is numerically larger? Answer = label.
A: I
(I: 4 nM, II: 2 nM)

[I] O[C@@H]1CO[C@H]2[C@@H]1OC[C@H]2Oc1nc2nc(-c3ccc(-c4ccc(C5Cc6nccn6C5)cc4)cc3)c(Cl)cc2[nH]1 (stereo partly shown)
[II] O=c1ncn(-c2ccc(-c3ccc(-c4nc5nc(O[C@@H]6CO[C@H]7[C@@H]6OC[C@H]7O)[nH]c5cc4Cl)cc3)cc2)[nH]1
[III] CC(C)(O)CN1Cc2cn(-c3ccc(-c4nc5nc(O[C@@H]6CO[C@H]7[C@@H]6OC[C@H]7O)[nH]c5cc4Cl)cc3)nc2C1 [Example 14, 2,2,2-trifluoroacetate]
Q: Form: Sort by [EC50] Order [ ascending ] List the labels, following the order given in the request.
A: II, I, III

[1] Cc1cc(-c2ccc(-c3ccc(-c4nc5nc(O[C@@H]6CO[C@H]7[C@@H]6OC[C@H]7O)[nH]c5cc4Cl)cc3)cc2)c(=O)[nH]n1
[2] O[C@@H]1CO[C@H]2[C@@H]1OC[C@H]2Oc1nc2nc(-c3ccc(C#CC4CCNCC4)cc3)c(Cl)cc2[nH]1
[3] CCN(CC)c1ccc(-c2ccc(-c3nc4nc(O[C@@H]5CO[C@H]6[C@@H]5OC[C@H]6O)[nH]c4cc3Cl)cc2)cc1
[4] CC(CO)(CO)c1ccc(-c2ccc(-c3nc4nc(O[C@@H]5CO[C@H]6[C@@H]5OC[C@H]6O)[nH]c4cc3Cl)cc2)cc1
Q: Put the entries in order of EC50, starting with the largest number. List the labels, following the order given in the request.
A: 2, 3, 1, 4

[I] O[C@@H]1CO[C@H]2[C@@H]1OC[C@H]2Oc1nc2nc(-c3ccc(-c4ccc(Cn5ccnc5)cc4)cc3)c(Cl)cc2[nH]1
[II] CC1(c2ccc(-c3ccc(-c4nc5nc(O[C@@H]6CO[C@H]7[C@@H]6OC[C@H]7O)[nH]c5cc4Cl)cc3)cc2)COC1
Q: Choose between I and II : whose measured EC50 value is numerically larger? Answer = label.
A: II
(II: 8 nM, I: 4 nM)
